tested on: UACC-257 melanoma; assay: NCI tumour cell line growth inhibition, 48 h
Where a SMILES comes first, the peptide text is derived from it. [ ]: non-standard residue; d: D form. Ac5c = NC1(C(=O)O)CCCC1
ENDPOINT: TGI

Please review the entries below; each comes with its answer.
molecule="O=C(c1ccccc1)c1ccc2nc3n(c2c1)C(c1c(F)cccc1F)SC3 (centres undefined)" measured="91.1 µM"
molecule="COc1cc(C2SCC(=O)N2c2ccccc2Cl)cc(OC)c1OC (centres undefined)" measured="> 100 µM"
molecule="CC(C)(C)[Si](C)(C)O[C@@H](C(=O)OC1C=CCCC1)[C@@H](NC(=O)c1ccccc1)c1ccccc1 (some centres undefined)" measured="> 100 µM"
molecule=CC(=O)[O-].CC(=O)[O-].[Pt+2].c1cscn1.c1cscn1 measured="85.3 µM"
molecule=ClCc1cccc(Cn2cnc3c(NC45CC6CC(CC(C6)C4)C5)ncnc32)c1 measured="37.4 µM"
molecule=O=c1c2c(nc3n1CCS3)[nH]c1ccccc12 measured="> 100 µM"
molecule=O=C1Nc2ccc(C(=O)c3ccco3)cc2/C1=C/c1cc(Cl)c(O)c(Cl)c1 measured="17.9 µM"
molecule="NC1(C(=O)NC2(C(=O)O)CCCC2)CCCC1 (H-[Ac5c]-[Ac5c]-OH)" measured="> 100 µM"

Consider the record given below.
Sample C=C1C(=O)OC2/C=C(\CO)C3OC3C3OC3(C)CC(OC(=O)/C(=C/C)CO)C12 (centres undefined) — what was its TGI?
> 100 µM

###

Each record here notes measured TGI.
system: SF-539 CNS; test: NCI tumour cell line growth inhibition, 48 h

Please review the entries below; each comes with its answer.
compound=COc1cc2c[n+](C)c3c4cc5c(cc4ccc3c2cc1OC)OCO5 test_system="SF-539 CNS" measured="5.32 µM"
compound=O=C1CC(=O)NC(=NN2C(=O)/C(=C/C(=O)c3ccco3)N=C2c2ccccc2)N1 test_system="SF-539 CNS" measured="> 100 µM"
compound="CC1=NN(C(=O)CC(=O)Nc2ccc(C)cc2)C(=O)C1N=Nc1ccc(C(=O)O)cc1 (stereo not given)" test_system="SF-539 CNS" measured="> 100 µM"
compound=Nc1nc(N)c2cc(Sc3ccc4nc(N)nc(N)c4c3)ccc2n1 test_system="SF-539 CNS" measured="> 100 µM"

Consider the record given below.
Sample COc1cc(S(=O)(=O)Nc2nc(-c3ccc(N4C(=O)C(CC(=O)O)SC4c4ccccc4O)cc3)cs2)ccc1Cl (stereo not given) — what was its TGI?
> 100 µM

###

tested on: U251 CNS; assay: NCI tumour cell line growth inhibition, 48 h
ENDPOINT: TGI

Please review the entries below; each comes with its answer.
compound="C=C1C(=O)OC2/C=C(\\CO)C3OC3C3OC3(C)CC(OC(=O)/C(=C/C)CO)C12 (configuration not stated)" measured="> 100 µM"
compound=C[C@]12C[C@H](c3ccccc3)Nc3ccccc3N1C(c1ccccc1)=NO2 measured="> 100 µM"
compound="CCC(Sc1cc(Cl)c(C)cc1S(=O)(=O)Nc1nc(N)nc(N(C)C)n1)C(=O)O (configuration not stated)" measured="> 10 µM"
compound=Nc1ccc(N(S(=O)(=O)c2ccccc2)S(=O)(=O)c2ccccc2)c(Cl)c1 measured="> 100 µM"
compound=O=C(c1cc(Cl)cc(Cl)c1)N(C(=O)N1CCN(c2ccccc2)CC1)c1ccccc1 measured="> 100 µM"

Please state recorded TGI (tested on U251 CNS) of `COc1ccc([N+]2=NC(c3ccc([N+](=O)[O-])cc3)=NN(c3ccccc3)C2)cc1`
> 100 µM

Please state recorded TGI (tested on U251 CNS) of `Cn1c([N+](=O)[O-])cnc1/C=C1\Oc2ccccc2C1=O`
4.05 µM

###

test system: SF-295 CNS; test: NCI tumour cell line growth inhibition, 48 h
Where a SMILES comes first, the peptide text is derived from it. [ ]: non-standard residue; d: D form. Ac5c = NC1(C(=O)O)CCCC1
Each record here notes measured TGI.

Sample CC1=NN(C(=O)CC(=O)Nc2ccc(C)cc2)C(=O)C1N=Nc1ccc(C(=O)O)cc1 (configuration not stated) — what was its TGI?
> 100 µM

Sample `COc1nc(C)nc2sc3c(c12)CCCC3` — what was its TGI?
> 100 µM

Sample Cc1cc(Cl)ccc1NC(=O)CCCC(=O)C1CCCC1=O (configuration not stated) — what was its TGI?
> 100 µM

Sample CCOC(=O)C(N)C[S][Sn]([CH3])([CH3])[Cl] (configuration not stated) — what was its TGI?
> 100 µM

Sample NC1(C(=O)NC2(C(=O)O)CCCC2)CCCC1 (H-[Ac5c]-[Ac5c]-OH) — what was its TGI?
> 100 µM

Sample CC/C(C)=C1\CCC(CN2CCOCC2)C1=O (configuration not stated) — what was its TGI?
> 100 µM

Sample `CC(=O)C(I(OS(=O)(=O)c1ccc(C)cc1)c1ccccc1)=P(c1ccccc1)(c1ccccc1)c1ccccc1` — what was its TGI?
> 100 µM

Sample `COc1cc(/C=C(\C#N)C(=O)c2ccccc2)ccc1OCc1ccccc1` — what was its TGI?
> 100 µM

Sample `COC(=O)c1cc2c(o1)Sc1ccccc1NC2=O` — what was its TGI?
> 100 µM

###

Each record here notes measured TGI.
tested on: NCI-H226 lung; assay: NCI tumour cell line growth inhibition, 48 h

molecule="O=C1CC(CC(O)[C@@H]2CCCC[C@@H]2O)CC(=O)N1c1ccccc1 (stereo partly specified)" endpoint=TGI measured="> 100 µM"
molecule="CC(=O)Nc1ccc(C(=O)NN2C(=O)C(Cl)C2c2ccc(Cl)cc2)cc1 (stereo unspecified)" endpoint=TGI measured="> 92.1 µM"
molecule=O=C1c2cccc3cc([N+](=O)[O-])cc(c23)C(=O)N1CCCN1CCN(CCCNc2ccc3ncn4c5ccccc5c(=O)c2c34)CC1 endpoint=TGI measured="< 0.005 µM"
molecule=CN(C)C=C1C(=O)c2c(Br)sc(Br)c2C1=O endpoint=TGI measured="33.3 µM"

Please state recorded TGI (tested on NCI-H226 lung) of CC(=O)OCC1OC(N2C(=O)C(=O)c3cc(C)ccc32)C(OC(C)=O)C(OC(C)=O)C1OC(C)=O (stereo unspecified)
> 100 µM

Please state recorded TGI (tested on NCI-H226 lung) of `COc1cc(OCc2nc3ccccc3n3cccc23)cc(OC)c1OC`
52.4 µM

Please state recorded TGI (tested on NCI-H226 lung) of `CCN(CC)c1cc2c3c(c1)CCCN3CCC2`
> 10 µM

Please state recorded TGI (tested on NCI-H226 lung) of CC(C)=CCC[C@@H](C)C1=C(O)C(O)C(C)=C2N=C(c3ccccc3)C(=O)OC21 (stereo partly specified)
6.94 µM

###

system: NCI-H460 lung
Classes to choose from: active, inactive

Use these answered entries as a reference point.
compound=O=Cc1ccc(-c2cc(C=O)c(-c3cccs3)[nH]2)s1 category_label=inactive
compound=COc1cc(C(=O)/C(C)=C/c2c[nH]c3ccccc23)cc(OC)c1OC category_label=active
compound="CC12OC(c3ccccc3)=CC(c3ccc(Cl)cc3)=C1C(c1ccccc1)=CC2=O (centres undefined)" category_label=inactive

Name the outcome recorded for `ClCc1cccc(Cn2cnc3c(NC45CC6CC(CC(C6)C4)C5)ncnc32)c1` in the assay.
inactive

Name the outcome recorded for `CCOC(=O)c1cc(C#N)c(=O)n(/N=C(\C)c2ccncc2)c1O` in the assay.
inactive

Name the outcome recorded for `Cc1ccccc1NC(=O)N/C(N)=N/c1nc(-c2cccc([N+](=O)[O-])c2)cs1` in the assay.
inactive

Name the outcome recorded for `O=S(=O)(NC1=NCCN1C(=S)SN1CCn2c1nsc2=S)c1ccc(Br)cc1` in the assay.
inactive

Name the outcome recorded for `Nc1c(C(=O)c2ccc(Cl)cc2)sc(Nc2ccccc2)c1-c1nc2ccccc2s1` in the assay.
inactive

Name the outcome recorded for `COc1cc(Nc2nccc(Nc3ccc4c(C)[nH]nc4c3)n2)cc(OC)c1OC` in the assay.
inactive

###

Each record here notes measured TGI.
tested on: LOX IMVI melanoma; experiment: NCI tumour cell line growth inhibition, 48 h

Please review the entries below; each comes with its answer.
molecule="CC(=O)OCC1OC(N2C(=O)C(=O)c3cc(C)ccc32)C(OC(C)=O)C(OC(C)=O)C1OC(C)=O (stereo unspecified)" measured="34.3 µM"
molecule="CCOC(=O)C(Cl)(NC(=O)NC(Cl)(C(=O)OCC)C(F)(F)F)C(F)(F)F (stereo unspecified)" measured="> 100 µM"
molecule=COc1ccc([N+]2=NC(c3ccc([N+](=O)[O-])cc3)=NN(c3ccccc3)C2)cc1 measured="> 100 µM"
molecule="CCOC(=O)NNC(=O)C1CSC(c2ccccc2)N1C(C)=O (stereo unspecified)" measured="> 100 µM"
molecule=COc1c2nc(CCl)[nH]c(=O)c2c(OC)c2nc(CCl)[nH]c(=O)c12 measured="> 100 µM"

Please state recorded TGI (tested on LOX IMVI melanoma) of CCC(C)C(C(=O)N/N=C1/SCC(=O)N1c1ccccc1)C(=O)N/N=C1/SCC(=O)N1c1ccccc1 (stereo unspecified)
> 100 µM

Please state recorded TGI (tested on LOX IMVI melanoma) of `O=C(Nc1cccc2ccccc12)Nn1cnnc1`
> 100 µM
